Reported Flavonoids screening on endometrial cancer cell organoids, Average by item:
- Test system: endometrial cancer organoids
- EXPERIMENTAL_PROTOCOL: Patient-derived endometrial cancer organoid cell viability (CellTiter-Glo)
- Assay type: cell-based, human
- TEST_PARAMETERS: 60 μM, monotherapy; viability normalized to vehicle = 100
- Procedure: Development of patient derived organoids: The patient derived organoids were created as follows: the patient's tissue sample was collected after surgery and bathed in Hank's Balanced Salt Solution (HBSS) (Hyclone, SH30031.02) with 1% Pencillin/Streptomycin (P/S) (Life Technologies, 15070-063) on ice. […] Upon checking under hemocytometer cell number was calculated and processed for organoid culture. […]
ASSAY_ENDPOINT: Flavonoids screening on endometrial cancer cell organoids, Average

{"COMPOUND": "O=c1cc(-c2ccc(O)c(O)c2)oc2cc(O)cc(O)c12 [Luteolin]", "TESTED_SYSTEM": "endometrial cancer organoids", "READING": 0.00}
{"COMPOUND": "O=c1c(O)c(-c2ccccc2)oc2ccccc12 [3-hydroxyflavone]", "TESTED_SYSTEM": "endometrial cancer organoids", "READING": 35.89}
{"COMPOUND": "O=c1c(O)c(-c2ccc(O)c(O)c2)oc2cc(O)cc(O)c12 [Quercetin]", "TESTED_SYSTEM": "endometrial cancer organoids", "READING": 25.59}
{"COMPOUND": "O=c1c(O)c(-c2ccccc2)oc2cc(O)cc(O)c12 [Galangin]", "TESTED_SYSTEM": "endometrial cancer organoids", "READING": 33.55}
